Source of measurements: patent US9850283B2

Measured IC50 accompanies every entry in the list below.
molecular target: Human PD-L1/PD-1 (Homo sapiens, UniProt Q9NZQ7); construct: made in house; host or cells: HEK293T; experiment: HTRF PD-1-Ig/PD-L1-His binding assay (human PD-L1); conditions: cluster symbol; read-out: HTRF IC50 cluster
Sequence (Q9NZQ7 with tags, fused parts or gaps): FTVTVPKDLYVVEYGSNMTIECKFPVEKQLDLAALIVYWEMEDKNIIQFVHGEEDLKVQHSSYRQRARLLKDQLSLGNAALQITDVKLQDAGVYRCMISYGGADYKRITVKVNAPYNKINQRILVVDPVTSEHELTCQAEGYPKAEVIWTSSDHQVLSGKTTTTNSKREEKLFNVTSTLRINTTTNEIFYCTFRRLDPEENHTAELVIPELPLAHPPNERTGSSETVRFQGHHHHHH
Positions of bridges follow the written chain, without caps; N, C: chain ends. Non-standard residues stand in square brackets, D forms with d. Residues, ends and D or L forms follow the SMILES beside them. ξ: configuration not given here. Phe(4-Me) = Cc1ccc(C[C@H](N)C(=O)O)cc1; Bta = N[C@@H](Cc1csc2ccccc12)C(=O)O; Hyp = O=C(O)[C@@H]1C[C@@H](O)CN1; NMeF = CN[C@@H](Cc1ccccc1)C(=O)O; NMeNle = CCCC[C@H](NC)C(=O)O; NMeM = CN[C@@H](CCSC)C(=O)O; NMeA = CN[C@@H](C)C(=O)O; ξC = NC(CS)C(=O)O; Sar = CNCC(=O)O

{"columns": ["Compound", "Experimental Target", "IC50"],
 "data": [
  ["CCCC[C@H]1C(=O)N(C)[C@@H](CCCC)C(=O)N[C@@H](CCCCN)C(=O)N[C@H](C(=O)NCC(N)=O)CSCC(=O)N[C@@H](Cc2ccc(O)cc2)C(=O)N(C)[C@@H](C)C(=O)N[C@@H](CC(=O)O)C(=O)N2CCC[C@H]2C(=O)N[C@@H](Cc2c[nH]cn2)C(=O)N[C@@H](CCC(N)=O)C(=O)N2C[C@H](O)C[C@H]2C(=O)N[C@@H](Cc2c[nH]c3ccccc23)C(=O)N[C@@H](CO)C(=O)N[C@@H](Cc2c[nH]c3ccccc23)C(=O)N1C [Example 5120] ({CH2CO}-Y[NMeA]DPHQ[Hyp]WSW[NMeNle][NMeNle]KCG-NH2; thioether N-14)", "Human PD-L1/PD-1 (Homo sapiens, UniProt Q9NZQ7)", "0.385 to 6.74 nM"]
]}

stdin: Return reported IC50; argument: CCCC[C@H]1C(=O)N(C)[C@@H](CCCC)C(=O)N[C@@H](CCCNC(=N)N)C(=O)N[C@H](C(=O)NCC(N)=O)CSCC(=O)N[C@@H](Cc2ccccc2)C(=O)N(C)[C@@H](C)C(=O)N[C@@H](CC(N)=O)C(=O)N2CCC[C@H]2C(=O)N[C@@H](Cc2cnc[nH]2)C(=O)N[C@@H](CCC(=O)O)C(=O)N(C)CC(=O)N[C@@H](Cc2c[nH]c3ccccc23)C(=O)N[C@@H](CO)C(=O)N[C@@H](Cc2c[nH]c3ccccc23)C(=O)N1C [Example 1054] ({CH2CO}-F[NMeA]NPHE[Sar]WSW[NMeNle][NMeNle]RCG-NH2; thioether N-14)
stdout: 0.385 to 6.74 nM

stdin: Return reported IC50; argument: CCCC[C@H]1C(=O)N[C@@H](CCCNC(=N)N)C(=O)NC(C(=O)NCC(N)=O)CSCC(=O)N[C@@H](Cc2ccc(O)cc2)C(=O)N(C)[C@@H](C)C(=O)N[C@@H](CC(N)=O)C(=O)N2CCC[C@H]2C(=O)N[C@@H](CO)C(=O)N[C@@H](CC(C)C)C(=O)N2C[C@H](O)C[C@H]2C(=O)N[C@@H](Cc2c[nH]c3ccccc23)C(=O)N[C@@H](CO)C(=O)N[C@@H](Cc2csc3ccccc23)C(=O)N(C)[C@@H](CCSC)C(=O)N1C (stereo partly shown) [Example 9099] ({CH2CO}-Y[NMeA]NPSL[Hyp]WS[Bta][NMeM][NMeNle]R[ξC]G-NH2; thioether N-14)
stdout: 0.385 to 6.74 nM

stdin: Query: IC50; subject: CCCC[C@H]1C(=O)N(C)CC(=O)N[C@@H](CC(=O)O)C(=O)N[C@@H](C(C)C)C(=O)N(C)[C@@H](Cc2ccccc2)C(=O)N[C@@H](Cc2ccc(O)cc2)C(=O)N(C)CC(=O)N[C@@H](Cc2c[nH]c3ccccc23)C(=O)N[C@@H](Cc2ccc(O)cc2)C(=O)N[C@@H](Cc2ccc(C)cc2)C(=O)N[C@H](C(=O)NCC(N)=O)CSCC(=O)N[C@@H](Cc2ccccc2)C(=O)N(C)[C@@H](Cc2ccccc2)C(=O)N1C [Example 3107] ({CH2CO}-F[NMeF][NMeNle][Sar]DV[NMeF]Y[Sar]WY[Phe(4-Me)]CG-NH2; thioether N-13)
stdout: 6.76 to 30.3 nM
